Target system: T1, transportin 3 (TNPO3) (UniProt Q9Y5L0-2 1-923)
T1 sequence: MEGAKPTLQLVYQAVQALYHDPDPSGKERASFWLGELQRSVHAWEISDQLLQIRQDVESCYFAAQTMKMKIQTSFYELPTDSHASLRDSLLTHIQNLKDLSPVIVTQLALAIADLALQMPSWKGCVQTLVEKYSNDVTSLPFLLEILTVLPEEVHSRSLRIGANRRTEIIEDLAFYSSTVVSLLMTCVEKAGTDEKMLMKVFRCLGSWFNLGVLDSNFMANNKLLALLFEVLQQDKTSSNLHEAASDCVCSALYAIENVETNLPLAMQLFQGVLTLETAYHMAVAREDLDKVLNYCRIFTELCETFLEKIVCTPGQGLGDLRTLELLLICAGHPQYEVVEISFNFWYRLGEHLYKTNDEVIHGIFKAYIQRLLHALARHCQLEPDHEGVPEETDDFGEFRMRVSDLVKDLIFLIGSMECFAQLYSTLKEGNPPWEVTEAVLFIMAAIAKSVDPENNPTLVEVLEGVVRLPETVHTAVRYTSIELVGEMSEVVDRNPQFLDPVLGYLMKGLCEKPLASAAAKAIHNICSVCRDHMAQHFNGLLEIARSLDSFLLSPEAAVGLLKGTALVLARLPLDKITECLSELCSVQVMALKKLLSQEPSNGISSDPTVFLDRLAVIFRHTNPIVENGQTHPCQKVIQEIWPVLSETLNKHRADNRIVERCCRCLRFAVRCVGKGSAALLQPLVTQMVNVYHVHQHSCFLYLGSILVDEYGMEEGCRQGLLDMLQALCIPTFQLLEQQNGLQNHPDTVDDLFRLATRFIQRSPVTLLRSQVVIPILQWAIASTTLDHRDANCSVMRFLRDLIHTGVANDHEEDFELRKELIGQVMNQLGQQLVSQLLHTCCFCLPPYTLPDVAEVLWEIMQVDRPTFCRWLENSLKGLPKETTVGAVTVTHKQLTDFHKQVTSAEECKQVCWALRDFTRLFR
Test description: fluorescence polarisation
Non-standard residues stand in square brackets, D forms with d. No end group written: not given here. *: point of attachment. FITC = O=C1OC2(c3ccc(O)cc3Oc3cc(O)ccc32)c2ccc(NC(=S)*)cc21; pS = N[C@@H](COP(=O)(O)O)C(=O)O; Ahx = NCCCCCC(=O)O
Measurement kind: Kd (µM)
Just the number please, in µM, no unit attached.

Query: Entry {FITC-Ahx}-ERER[pS]RER [D3P peptide with Glu for Tyr at position 1 (ERERERER backbone with phosphoserine at position 5)] needs its Kd filled in; supply it.
Result: 17.1
